We begin with a simple list: items and their reported IC50.
- measured target: human MRGPRX2 (Homo sapiens, UniProt Q96LB1)
- Sequence (Q96LB1 whole entry): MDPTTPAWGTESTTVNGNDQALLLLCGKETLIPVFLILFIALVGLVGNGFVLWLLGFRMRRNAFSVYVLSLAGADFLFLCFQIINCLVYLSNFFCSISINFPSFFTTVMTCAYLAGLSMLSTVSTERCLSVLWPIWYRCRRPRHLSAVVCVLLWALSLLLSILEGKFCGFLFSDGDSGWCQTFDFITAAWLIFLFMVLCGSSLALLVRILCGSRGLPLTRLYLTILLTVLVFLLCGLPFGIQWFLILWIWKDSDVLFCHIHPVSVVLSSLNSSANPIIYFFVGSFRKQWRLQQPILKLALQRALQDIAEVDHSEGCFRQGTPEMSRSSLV
- experiment: Ca2+ mobilization assay (FLIPR TETRA): inhibition of Cortistatin-14 mediated MRGPRX2 activation

Solved entries:
| compound | measured target | measured parameter | recorded result |
| --- | --- | --- | --- |
| C[C@@H](C(=O)Nc1ccc(F)cn1)N1CCC(F)(F)[C@@H](c2ccc(=O)n(CC(F)F)c2)C1 | human MRGPRX2 (Homo sapiens, UniProt Q96LB1) | IC50 | ≤ 10 nM |
| C[C@@H](C(=O)Nc1ccc(OC2CCCC2)cn1)N1CCC(F)(F)[C@@H](c2ccc(=O)[nH]c2)C1 | human MRGPRX2 (Homo sapiens, UniProt Q96LB1) | IC50 | 10 to 100 nM |
| C[C@@H](C(=O)Nc1ccc(F)cn1)N1CCC(F)(F)[C@@H](c2c[nH]c(=O)c(CO)c2)C1 | human MRGPRX2 (Homo sapiens, UniProt Q96LB1) | IC50 | 100 to 3160 nM |
| C[C@@H](C(=O)Nc1ccc(C(F)(F)c2ccc(F)cc2)cn1)N1CCC(F)(F)[C@@H](c2cc[n+]([O-])cc2)C1 | human MRGPRX2 (Homo sapiens, UniProt Q96LB1) | IC50 | 10 to 100 nM |
| C[C@@H](C(=O)Nc1ccc(OCC2CC2)nn1)N1CCC(F)(F)C(c2c[nH]c(=O)c(C#N)c2)C1 (some centres unmarked) | human MRGPRX2 (Homo sapiens, UniProt Q96LB1) | IC50 | 10 to 100 nM |

Next:
// query Supply recorded IC50 for CC(C(=O)Nc1ccc(Oc2ccc(F)cc2F)cn1)N1CCC(F)(F)C(c2ccnc(CN)c2)C1 (mixture of isomers) here.
// result ≤ 10 nM

====

We begin with a simple list: items and their reported pIC50.
- measured target: human MRGPRX2 (Homo sapiens, UniProt Q96LB1)
- experiment: Ca2+ mobilization assay (FLIPR TETRA): inhibition of Cortistatin-14 mediated MRGPRX2 activation
pIC50: −log10 of the molar value.

Solved entries:
| compound | measured parameter | recorded result |
| --- | --- | --- |
| C[C@@H](C(=O)Nc1cnc(Oc2ccccc2)cn1)N1CCC(F)(F)[C@@H](c2ccc(=O)[nH]c2)C1 [Example 60] | pIC50 | 7.00 to 8.00 |
| CC(C(=O)Nc1ccc(CC2CCCCC2)cn1)N1CCC(F)(F)[C@@H](c2ccc(=O)[nH]c2)C1 (some centres unmarked) [Example 27] | pIC50 | 5.50 to 7.00 |
| C[C@@H](C(=O)Nc1ccc(OCC2CC2)cn1)N1CCC(F)(F)[C@@H](c2c[nH]c(=O)c(C(C)(C)O)c2)C1 [Example 152] | pIC50 | 7.00 to 8.00 |
| CC(C(=O)Nc1ccc(OCC2CCCC2)cn1)N1CCC(F)(F)[C@@H](c2ccc(=O)[nH]c2)C1 (some centres unmarked) [Example 47] | pIC50 | 5.50 to 7.00 |

// query State pIC50 on human MRGPRX2 (Homo sapiens, UniProt Q96LB1). Entry: Cc1ccccc1Oc1ccc(NC(=O)[C@H](C)N2CCC(F)(F)[C@@H](c3ccc(=O)[nH]c3)C2)nn1 [Example 20]
// result 5.50 to 7.00

====

- measured target: human MRGPRX2 (Homo sapiens, UniProt Q96LB1)
- experiment: Ca2+ mobilization assay (FLIPR TETRA): inhibition of Cortistatin-14 mediated MRGPRX2 activation
measured parameter: IC50

Solved entries:
| compound | recorded result |
| --- | --- |
| CC(C(=O)Nc1ccc(F)cn1)N1CCC(F)(F)C(c2ccc(=O)n(Cc3ccncc3)c2)C1 (centres unmarked) | 0.01 to 0.1 µM |
| CC(C(=O)Nc1ccc(CC2CC2)cn1)N1CCC(F)(F)[C@@H](c2ccc(=O)[nH]c2)C1 (some centres unmarked) | 0.1 to 3.16 µM |

// query Supply recorded IC50 for C[C@@H](C(=O)Nc1ccc(Oc2cc(F)c(F)cc2F)cn1)N1CCC(F)(F)[C@@H](c2ccc(=O)[nH]c2)C1 here.
// result ≤ 0.01 µM

// query Supply recorded IC50 for Cc1nc(-c2ccc(Oc3ccc(NC(=O)[C@H](C)N4CCC(F)(F)[C@@H](c5ccc(=O)[nH]c5)C4)nc3)c(F)c2)cs1 here.
// result 0.01 to 0.1 µM

// query Supply recorded IC50 for C[C@@H](C(=O)Nc1ccc(F)cn1)N1CCC(F)(F)[C@@H](c2cc(N)c(=O)[nH]n2)C1 here.
// result 0.01 to 0.1 µM

// query Supply recorded IC50 for C[C@H]1C[C@@H](c2ccc(=O)[nH]n2)CN([C@@H](C)C(=O)Nc2ccc(F)cn2)C1 here.
// result 0.1 to 3.16 µM

// query Supply recorded IC50 for C[C@H]1C[C@@H](c2ccc(=O)[nH]c2)CN([C@@H](C)C(=O)Nc2ccc(Cl)cn2)C1 here.
// result 0.1 to 3.16 µM

// query Supply recorded IC50 for CC(C(=O)Nc1ccc(F)cn1)N1CCC(F)(F)C(c2ccc(=O)n(Cc3ccccn3)c2)C1 (centres unmarked) here.
// result 0.01 to 0.1 µM

// query Supply recorded IC50 for C[C@@H](C(=O)Nc1ccc(Cl)cn1)N1CCC(F)(F)[C@@H](c2c[nH]c(=O)c(N)c2)C1 here.
// result 0.1 to 3.16 µM

// query Supply recorded IC50 for C[C@@H](C(=O)Nc1ccc(OCC2CC2)nn1)N1CCC(F)(F)[C@@H](c2c[nH]c(=O)c(CN(C)C)c2)C1 here.
// result 0.1 to 3.16 µM

// query Supply recorded IC50 for C[C@@H](C(=O)Nc1ccc(F)cn1)N1CCC(F)(F)[C@@H](c2c[nH]c(=O)c(CN)c2)C1 (single isomer, unassigned) here.
// result 0.1 to 3.16 µM

// query Supply recorded IC50 for CC(C(=O)Nc1ccc(Oc2ccncc2)cn1)N1CCC(F)(F)[C@@H](c2ccc(=O)[nH]c2)C1 (some centres unmarked) here.
// result 0.1 to 3.16 µM

// query Supply recorded IC50 for C[C@@H](C(=O)Nc1ncc(OCC2CC2)cc1F)N1CCC(F)(F)[C@@H](c2ccc(=O)[nH]c2)C1 here.
// result 0.1 to 3.16 µM

// query Supply recorded IC50 for C[C@@H](C(=O)Nc1ccc(Oc2ccc(F)cc2)cn1)N1CCC(F)(F)[C@@H](c2cc[n+]([O-])c(CO)c2)C1 here.
// result ≤ 0.01 µM

// query Supply recorded IC50 for C[C@@H](C(=O)Nc1ccc(OCC2CC2)nn1)N1CCC(F)(F)C(c2ccc(=O)n(CCS(C)(=O)=O)c2)C1 (some centres unmarked) here.
// result 0.1 to 3.16 µM

// query Supply recorded IC50 for Cc1cccc(-c2ccc(NC(=O)[C@H](C)N3CCC(F)(F)[C@@H](c4ccc(=O)[nH]c4)C3)nc2)n1 here.
// result 0.1 to 3.16 µM

// query Supply recorded IC50 for CC(=O)NCc1cc(C2CN(C(C)C(=O)Nc3ccc(F)cn3)CCC2(F)F)cc[n+]1[O-] (centres unmarked) here.
// result 0.1 to 3.16 µM

// query Supply recorded IC50 for C[C@@H](C(=O)Nc1cnc(Oc2ccccc2)cn1)N1CCC(F)(F)[C@@H](c2c[nH]c(=O)c(CN)c2)C1 here.
// result 0.01 to 0.1 µM

// query Supply recorded IC50 for C[C@@H](C(=O)Nc1ccc(OCC2CC2)nn1)N1CCC(F)(F)[C@@H](c2cc[n+]([O-])c(CC(F)(F)F)c2)C1 here.
// result ≤ 0.01 µM

// query Supply recorded IC50 for CC(C(=O)Nc1ccc(CC2CCCC2)cn1)N1CCC(F)(F)[C@@H](c2ccc(=O)[nH]c2)C1 (some centres unmarked) here.
// result 0.1 to 3.16 µM

// query Supply recorded IC50 for C[C@@H](C(=O)Nc1ccc(Oc2ccc(F)cc2)cn1)N1CCC(F)(F)C(c2c[nH]c(=O)c(C(O)C(F)(F)F)c2)C1 (some centres unmarked) here.
// result ≤ 0.01 µM

// query Supply recorded IC50 for C[C@@H](C(=O)Nc1ccc(Oc2ccc(F)cc2F)cn1)N1CCC(F)(F)[C@@H](c2c[nH]c(=O)c(CS(C)(=O)=O)c2)C1 here.
// result ≤ 0.01 µM

// query Supply recorded IC50 for C[C@@H](C(=O)Nc1ccc(F)cn1)N1CCC(F)(F)C(c2ccc(=O)n(CCS(C)(=O)=O)c2)C1 (some centres unmarked) here.
// result 0.1 to 3.16 µM

====

- measured target: human MRGPRX2 (Homo sapiens)
- experiment: Ca2+ mobilization assay (FLIPR TETRA): inhibition of Cortistatin-14 mediated MRGPRX2 activation
pIC50: −log10 of the molar value.
measured parameter: pIC50

Solved entries:
| molecule | pIC50 |
| --- | --- |
| C[C@@H](C(=O)Nc1ccc(F)cn1)N1CCC(F)(F)[C@@H](c2ccc(=O)[nH]c2)C1 [Example 79] | 7.00 to 8.00 |
| C[C@@H](C(=O)Nc1ccc(OCC2CC2)nn1)N1CCC(F)(F)C(c2c[nH]c(=O)c(Br)c2)C1 (some centres unmarked) [Example 221] | 7.00 to 8.00 |
| C[C@@H](C(=O)Nc1ccc(Oc2ccc(F)cc2)cn1)N1CCC(F)(F)[C@@H](c2ccc(=O)[nH]c2)C1 [Example 5] | ≥ 8.00 |
| C[C@@H](C(=O)Nc1ccc(Cl)cn1)N1CCC(F)(F)[C@@H](c2ccc(=O)[nH]n2)C1 [Example 149] | 5.50 to 7.00 |
| C[C@@H](C(=O)Nc1ccc(OCC2CC2)nn1)N1CCC(F)(F)C(c2ccncc2)C1 (some centres unmarked) [Example 224] | 5.50 to 7.00 |

// query Supply recorded pIC50 for C[C@@H](C(=O)Nc1ccc(Oc2ccc(F)c(F)c2)cn1)N1CCC(F)(F)[C@@H](c2ccc(=O)[nH]c2)C1 [Example 268] here.
// result ≥ 8.00
